Below, each of the compounds is paired with its reported t1/2 (h) value.
assay: In vitro stability in 50% liver homogenate; assay type: in vitro ADME, mouse; details: 50% w/v mouse liver homogenate in PBS pH 7.4; 37°C; HPLC-UV 220 nm; one phase decay, least square fit; n = 3
Residues, ends and D or L forms follow the SMILES beside them.
QUANTITY: t1/2 (h)

1. CCCCCCCCCCCCCC(=O)N[C@@H](CCC(N)=O)C(=O)N[C@@H](Cc1c[nH]cn1)C(=O)N[C@H](C(=O)N[C@@H](CCC(N)=O)C(=O)N[C@H](C(=O)N[C@H](C(=O)N[C@@H](CCCCN)C(=O)N[C@H](C(=O)O)C(C)C)[C@@H](C)O)[C@@H](C)CC)[C@@H](C)O [Human Myr-PTEN-PDZ] (HELM PEPTIDE1{[CCCCCCCCCCCCCC(=O)[*:2]].Q.H.T.Q.I.T.K.V}$$$$V2.0)    18.5
2. CCCCCCCCCCCC(=O)N[C@@H](CCC(N)=O)C(=O)N[C@@H](Cc1c[nH]cn1)C(=O)N[C@@H](CO)C(=O)N[C@@H](CCC(N)=O)C(=O)N[C@H](C(=O)N[C@H](C(=O)N[C@@H](CCCCN)C(=O)N[C@H](C(=O)O)C(C)C)[C@@H](C)O)[C@@H](C)CC [Mouse Lau-PTEN-PDZ] (HELM PEPTIDE1{[CCCCCCCCCCCC(=O)[*:2]].Q.H.S.Q.I.T.K.V}$$$$V2.0)    0.95
3. CCCCCCCCCCCC(=O)N[C@@H](CCC(N)=O)C(=O)N[C@@H](Cc1c[nH]cn1)C(=O)N[C@H](C(=O)N[C@@H](CCC(N)=O)C(=O)N[C@H](C(=O)N[C@H](C(=O)N[C@@H](CCCCN)C(=O)N[C@H](C(=O)O)C(C)C)[C@@H](C)O)[C@@H](C)CC)[C@@H](C)O [Human Lau-PTEN-PDZ] (HELM PEPTIDE1{[CCCCCCCCCCCC(=O)[*:2]].Q.H.T.Q.I.T.K.V}$$$$V2.0)    0.60
4. CCCCCCCCCCCCCC(=O)N[C@@H](CCC(N)=O)C(=O)N[C@@H](Cc1c[nH]cn1)C(=O)N[C@@H](CO)C(=O)N[C@@H](CCC(N)=O)C(=O)N[C@H](C(=O)N[C@H](C(=O)N[C@@H](CCCCN)C(=O)N[C@H](C(=O)O)C(C)C)[C@@H](C)O)[C@@H](C)CC [Mouse Myr-PTEN-PDZ] (HELM PEPTIDE1{[CCCCCCCCCCCCCC(=O)[*:2]].Q.H.S.Q.I.T.K.V}$$$$V2.0)    1.36
